experiment: Therapeutic index, ratio of toxic dose in BALB/c mouse to antitumor dose in human PC3 cells xenografted BALB/c mouse; assay type: cell-based, PC-3; settings: in vivo, read-out: TI
measure.name: selectivity ratio

Which measured selectivity ratio value corresponds to COc1ccc2c(c1)[nH]c1c(C)c(OS(=O)(=O)c3cccc4c(N(C)C)cccc34)ccc12 ?
> 55
